Reported max response values for the following compounds.
# Test system: KB-3-1
# assay.summary: Cytotoxic Profiling of Annotated Libraries Using Quantitative High-Throughput Screening (AID 1296008); also: % is scaled to controls: 0 for no effect and ±100 for the full control effect; nearly all actives have a fitted effect of over 60% in size
# experimental.setup: Five cell lines viability, CellTiter-Glo ATP luminescence, 48-72 h; hits give low values
Records with an inconclusive call do not appear.

[
  {
    "compound": "O=C(CCNNC(=O)c1ccncc1)NCc1ccccc1",
    "unit.info": "%",
    "max response": 4.64
  },
  {
    "compound": "c1ccc2c(c1)CCCC2C1=NCCN1 (stereo unspecified)",
    "unit.info": "%",
    "max response": 10.6
  },
  {
    "compound": "OCCN1CCN(CCCN2c3ccccc3C=Cc3ccccc32)CC1",
    "unit.info": "%",
    "max response": -12.9
  },
  {
    "compound": "CCN1CCC[C@H]1CNC(=O)c1c(O)c(Cl)cc(Cl)c1OC",
    "unit.info": "%",
    "max response": -13.7
  },
  {
    "compound": "C[N+](C)(C)CCOC(=O)CCC(=O)OCC[N+](C)(C)C",
    "unit.info": "%",
    "max response": 1.17
  },
  {
    "compound": "CC(=O)Nc1nnc(S(N)(=O)=O)s1",
    "unit.info": "%",
    "max response": 1.55
  },
  {
    "compound": "CCO/C([O-])=N/c1c[n+](N2CCOCC2)no1",
    "unit.info": "%",
    "max response": -5.15
  },
  {
    "compound": "O=C1CC2(CCCC2)CC(=O)N1CCCCN1CCN(c2ncccn2)CC1",
    "unit.info": "%",
    "max response": -1.42
  },
  {
    "compound": "FC(F)(F)c1ccccc1-n1ccnc1",
    "unit.info": "%",
    "max response": 22
  },
  {
    "compound": "Cc1nc2ccccn2c(=O)c1CCN1CCC(C(=O)c2ccc(F)cc2)CC1",
    "unit.info": "%",
    "max response": -5.16
  },
  {
    "compound": "C[n+]1cc2c3c(ccc2c2ccc4cc5c(cc4c21)OCO5)OCO3",
    "unit.info": "%",
    "max response": -95.7
  },
  {
    "compound": "CC(C)NNC(=O)c1ccncc1",
    "unit.info": "%",
    "max response": -1.28
  },
  {
    "compound": "CCC(=O)c1ccc2c(c1)N(CCCN(C)C)c1ccccc1S2",
    "unit.info": "%",
    "max response": -0.0737
  },
  {
    "compound": "O=C(O)CN(CCOCCOCCN(CC(=O)O)CC(=O)O)CC(=O)O",
    "unit.info": "%",
    "max response": 5.76
  },
  {
    "compound": "CC(=O)OC(C)C[N+](C)(C)C (stereo unspecified)",
    "unit.info": "%",
    "max response": 6
  },
  {
    "compound": "CCN(CC)CCNC(=O)c1ccc(NC(C)=O)cc1",
    "unit.info": "%",
    "max response": 1.57
  },
  {
    "compound": "CO[C@@]1(NC(=O)CSCC#N)C(=O)N2C(C(=O)O)=C(CSc3nnnn3C)CS[C@@H]21",
    "unit.info": "%",
    "max response": 1.86
  },
  {
    "compound": "Cc1ccc(S(=O)(=O)NC(=O)NN2CCCCCC2)cc1",
    "unit.info": "%",
    "max response": 3.88
  },
  {
    "compound": "CN(C)CCOC(=O)COc1ccc(Cl)cc1",
    "unit.info": "%",
    "max response": -1.09
  },
  {
    "compound": "CCCN(CCC)CCc1cccc2c1CC(=O)N2",
    "unit.info": "%",
    "max response": -0.569
  },
  {
    "compound": "CCCCCCCC/C=C\\CCCCCCCC(=O)NCc1ccc(O)c(OC)c1",
    "unit.info": "%",
    "max response": -3.68
  },
  {
    "compound": "CNC1(C)C2CCC(C2)C1(C)C (stereo unspecified)",
    "unit.info": "%",
    "max response": 0.165
  },
  {
    "compound": "CN(C)C(=O)Oc1cccc([N+](C)(C)C)c1",
    "unit.info": "%",
    "max response": 3.68
  },
  {
    "compound": "Cc1cc(C)c(/C=C2\\C(=O)Nc3ccccc32)[nH]1",
    "unit.info": "%",
    "max response": -3.51
  },
  {
    "compound": "CN1CCN(C2=Nc3ccccc3Oc3ccc(Cl)cc32)CC1",
    "unit.info": "%",
    "max response": 6.07
  },
  {
    "compound": "CCNC(=O)N1CCN(CCCC(c2ccc(F)cc2)c2ccc(F)cc2)CC1",
    "unit.info": "%",
    "max response": -7.16
  },
  {
    "compound": "CC(C)(Oc1ccc(CCNC(=O)c2ccc(Cl)cc2)cc1)C(=O)O",
    "unit.info": "%",
    "max response": 2.41
  },
  {
    "compound": "CCCC(C(=O)OCCN(CC)CC)(c1ccccc1)c1ccccc1",
    "unit.info": "%",
    "max response": -8.71
  },
  {
    "compound": "CCN(Cc1ccncc1)C(=O)C(CO)c1ccccc1 (stereo unspecified)",
    "unit.info": "%",
    "max response": 6.96
  },
  {
    "compound": "CCn1cc(C(=O)O)c(=O)c2cc3c(cc21)OCO3",
    "unit.info": "%",
    "max response": -12.7
  },
  {
    "compound": "CC(C)(C)NCC(O)c1cc(O)cc(O)c1 (stereo unspecified)",
    "unit.info": "%",
    "max response": -2.33
  }
]
